- assay_system: Disks large homolog 4 (Homo sapiens)
- Sequence (P78352 whole entry, the tested form may be a part): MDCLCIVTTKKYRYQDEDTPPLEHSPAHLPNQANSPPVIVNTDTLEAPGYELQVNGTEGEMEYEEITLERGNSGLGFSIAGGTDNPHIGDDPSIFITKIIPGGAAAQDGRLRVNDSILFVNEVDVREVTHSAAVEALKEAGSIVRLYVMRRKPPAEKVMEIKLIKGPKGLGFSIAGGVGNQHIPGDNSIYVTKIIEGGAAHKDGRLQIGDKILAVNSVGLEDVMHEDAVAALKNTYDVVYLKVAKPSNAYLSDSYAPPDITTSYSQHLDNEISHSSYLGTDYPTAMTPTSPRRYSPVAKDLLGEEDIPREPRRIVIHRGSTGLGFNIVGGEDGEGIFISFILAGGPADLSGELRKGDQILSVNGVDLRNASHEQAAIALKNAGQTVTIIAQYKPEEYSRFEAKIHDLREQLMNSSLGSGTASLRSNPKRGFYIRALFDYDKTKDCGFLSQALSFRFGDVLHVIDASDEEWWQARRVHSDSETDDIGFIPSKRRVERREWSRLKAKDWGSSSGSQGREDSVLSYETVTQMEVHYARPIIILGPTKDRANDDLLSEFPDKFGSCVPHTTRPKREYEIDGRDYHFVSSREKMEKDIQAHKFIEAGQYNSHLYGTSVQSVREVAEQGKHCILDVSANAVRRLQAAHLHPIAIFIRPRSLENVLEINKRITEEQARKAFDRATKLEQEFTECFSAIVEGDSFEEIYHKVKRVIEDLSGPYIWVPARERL
- experiment_summary: Inhibition of PSD-95 PDZ2 domain by competitive fluorescence polarization assay
Peptide text beside a SMILES is read from it.
# maps each entry to its log10 Ki
readout_kind: log10 Ki (log10 of the value in µM)

CN[C@@H](CCC(=O)O)C(=S)N[C@H](C(=O)N[C@@H](C)C(=O)N[C@H](C(=O)O)C(C)C)[C@@H](C)O : 1.51
CC(C)[C@H](NC(=O)[C@H](CC(=O)O)NC(=O)[C@@H](NC(=O)[C@H](CCC(=O)O)NCCc1ccc(Cl)c(Cl)c1)[C@@H](C)O)C(=O)O : 0.08
CC(C)[C@H](NC(=O)[C@H](C)NC(=O)[C@@H](NC(=O)[C@H](CCC(=O)O)NCC1CC2CCC1C2)[C@@H](C)O)C(=O)O (stereo partly specified) : 0.11
CN[C@@H](CCC(=O)O)C(=O)N[C@H](C(=S)N[C@@H](C)C(=O)N[C@H](C(=O)O)C(C)C)[C@@H](C)O : 2.34
CC(C)[C@H](NC(=O)[C@H](C)NC(=O)[C@@H](NC(=O)[C@H](C)NCCc1ccc2ccccc2c1)[C@@H](C)O)C(=O)O : 1.75
CC(C)[C@H](NC(=O)[C@H](C)NC(=O)[C@@H](NC(=O)[C@H](CCC(=O)O)NCCCCc1ccc2ccc3cccc4ccc1c2c34)[C@@H](C)O)C(=O)O : 1.52
CC(C)[C@H](NC(=O)[C@H](C)NC(=O)[C@@H](NC(=O)[C@H](CCC(=O)O)NCCC1CCCCC1)[C@@H](C)O)C(=O)O : -0.20
CC(C)[C@H](NC(=O)[C@H](C)NC(=O)[C@@H](NC(=O)[C@@H](N)CCC(N)=O)[C@@H](C)O)C(=O)O (H-QTAV-OH) : 2.04
CC(C)[C@H](NC(=O)[C@H](C)NC(=O)[C@@H](NC(=O)[C@H](CCC(=O)O)NCC1CCCCCC1)[C@@H](C)O)C(=O)O : 0.15
CC(C)[C@H](NC(=O)[C@H](C)NC(=O)[C@@H](NC(=O)[C@H](C)NCCc1ccc(Cl)c(Cl)c1)[C@@H](C)O)C(=O)O : 1.11
CC(C)[C@H](NC(=O)[C@H](C)NC(=O)[C@@H](NC(=O)[C@H](CCC(=O)O)NCCC1CC2CCC1C2)[C@@H](C)O)C(=O)O (stereo partly specified) : 0.18
